test: Inhibition of Influenza A virus sialidase N2
READOUT_TYPE: pKi
// scale note: pKi = -log10(conc_M); give the bare number

SMI | pKi
C/C=C\[C@@H]1C[C@H](C(=O)O)N[C@H]1[C@@H](NC(C)=O)[C@](C)(CCC)OC | 9.70

Input line: Recorded pKi for `C=C[C@H]1CC(C(=O)O)=C[C@@H](OC(C)C)[C@@H]1NC(C)=O` , please?
Output line: 7.35
